TEST_SYSTEM: T1, soluble human FcRn (shFcRn) (human, UniProt P55899 24-297; P61769 21-119, biotinylated with Sulfo-NHS-LC-Biotin in the ELISA; amine-coupled to a CM5 chip in SPR)
T1 construct: also called biotinylated shFcRn
T1 sequence (P55899 24-297 limits assumed, chain 1 of 2): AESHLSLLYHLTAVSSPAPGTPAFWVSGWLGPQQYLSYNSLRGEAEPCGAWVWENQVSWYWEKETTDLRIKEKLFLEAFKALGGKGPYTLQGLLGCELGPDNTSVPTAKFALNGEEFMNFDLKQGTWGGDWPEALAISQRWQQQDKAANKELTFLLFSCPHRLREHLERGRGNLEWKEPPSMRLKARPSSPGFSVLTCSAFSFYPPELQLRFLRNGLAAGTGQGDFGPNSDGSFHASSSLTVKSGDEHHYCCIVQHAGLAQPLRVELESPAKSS
T1 sequence (P61769 21-119 limits assumed, chain 2 of 2): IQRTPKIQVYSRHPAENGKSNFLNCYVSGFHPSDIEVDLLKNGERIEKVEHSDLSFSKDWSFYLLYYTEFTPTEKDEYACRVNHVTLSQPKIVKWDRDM
PROTOCOL_DESCRIPTION: SPR, pH 6
Protocol: The following steps were performed to cross-link soluble human or cynomolgus FcRn to the dextran surface of a CM5 sensor chip (Biacore AB, Uppsala, Sweden) by an amine coupling reaction involving 1-ethyl-(3-dimethylaminopropyl)-carbodiimide hydrochloride (EDC) (Biacore AB, Uppsala, Sweden) and N-hydroxysuccinimide (NHS) (Biacore AB, Uppsala, Sweden) as recommended by Biacore (BIAapplications Handbook, version AB, section 4.2, Biacore AB, Uppsala, Sweden). […]
Positions of bridges follow the written chain, without caps; N, C: chain ends. Non-standard residues stand in square brackets, D forms with d. No end group written: not given here. Pen = CC(C)(S)[C@H](N)C(=O)O; NMeA = CN[C@@H](C)C(=O)O
QUANTITY_KIND: pKd
Scale note: pKd = -log10(concentration in M).

Quick one: pKd for RFXTGFFGXXYPC (Pen3; Sar9; NMeLeu10; disulfide; C-terminal amide) [Peptide No. 265] ?
5.48

Quick one: pKd for QRFVTGHFGXLYPANGP (D-Pro10; unbridged; C-terminal amide) [Peptide No. 157] ?
4.80

Quick one: pKd for QRFXTGHFXGXYPCNGP (Pen4; D-Phe9; NMeLeu11; disulfide; C-terminal amide) [Peptide No. 153] ?
6.62

Quick one: pKd for RFXTGRFGXXYPC (Pen3; Sar9; NMeLeu10; disulfide; C-terminal amide) [Peptide No. 256] ?
6.30

Quick one: pKd for QRFXTGHFGXLYPCNGP (Pen4; D-His10; disulfide; C-terminal amide) [Peptide No. 42] ?
5.70

Quick one: pKd for QRFXTGHFXGLYPCNGP (Pen4; D-Phe9; disulfide; C-terminal amide) [Peptide No. 52] ?
6.29

Quick one: pKd for QRFXTGHFGXLYPCNGP (Pen4; D-Pro10; disulfide; C-terminal amide) [Peptide No. 40] ?
6.64

Quick one: pKd for QRFXTGHFXGXYPCNGP (Pen4; D-Ala9; NMeLeu11; disulfide; C-terminal amide) [Peptide No. 154] ?
6.64

Quick one: pKd for QRFXTGHFXPLYPCNGP (Pen4; D-Phe9; disulfide; C-terminal amide) [Peptide No. 203] ?
5.42

Quick one: pKd for QRFVTGHFGXWYPINGP (D-Pro10; unbridged; C-terminal amide) [Peptide No. 190] ?
5.38

Quick one: pKd for QRF[Pen][NMeA]GHFGGLYPCNGP-NH2 (disulfide 4-14; N-terminus assumed; SMILES CC(C)C[C@@H]1NC(=O)CNC(=O)CNC(=O)[C@H](Cc2ccccc2)NC(=O)[C@H](Cc2c[nH]cn2)NC(=O)CNC(=O)[C@H](C)N(C)C(=O)[C@@H](NC(=O)[C@H](Cc2ccccc2)NC(=O)[C@H](CCCNC(=N)N)NC(=O)[C@@H](N)CCC(N)=O)C(C)(C)SSC[C@@H](C(=O)N[C@@H](CC(N)=O)C(=O)NCC(=O)N2CCC[C@H]2C(N)=O)NC(=O)[C@@H]2CCCN2C(=O)[C@H](Cc2ccc(O)cc2)NC1=O) [Peptide No. 213] ?
6.00

Quick one: pKd for QRFXTGHFXGLYPCNGP (Pen4; Sar9; disulfide; C-terminal amide) [Peptide No. 111] ?
5.70
